- EXPERIMENTAL_TARGET: human vasopressin V1b receptor (Homo sapiens, UniProt P47901)
Each item that follows carries a reported Ki.

Before answering, review these 10 worked examples.
[[record]]
compound = "COc1cccc(C(C(=O)N2CCN(c3ccncc3)CC2)n2c(=O)n(S(=O)(=O)c3ccc(OC)cc3OC)c3ccc(Cl)cc32)c1 (centres unmarked) [Example 21]"
experimental_readout = "Ki"
assay_value = "0.1 to 0.5 µM"

[[record]]
compound = "COc1ccc(S(=O)(=O)n2c(=O)n(C(C(=O)N3CCCN(C)CC3)c3ccccc3)c3cc(Cl)ccc32)cc1 (centres unmarked) [Example 126]"
experimental_readout = "Ki"
assay_value = "0.1 to 0.5 µM"

[[record]]
compound = "CCCN1CCN([C@H]2CCN(C(=O)C(c3ccccc3)n3c(=O)n(S(=O)(=O)c4ccc(OC)cc4)c4ccc(C#N)cc43)C2)CC1 (some centres unmarked) [Example 161]"
experimental_readout = "Ki"
assay_value = "< 0.1 µM"

[[record]]
compound = "COc1ccc(S(=O)(=O)n2c(=O)n(C(C(=O)N3CC[C@H](N4CCNCC4)C3)c3ccccc3)c3cc(Cl)ccc32)cc1 (some centres unmarked) [Example 149]"
experimental_readout = "Ki"
assay_value = "< 0.1 µM"

[[record]]
compound = "CCCN1CCN(C2CCN(C(=O)C(Cc3ccccc3)n3c(=O)n(S(=O)(=O)c4ccc(OC)cc4)c4ccc(Cl)cc43)C2)CC1 (centres unmarked) [Example 81]"
experimental_readout = "Ki"
assay_value = "0.1 to 0.5 µM"

[[record]]
compound = "N#Cc1ccc(S(=O)(=O)n2c(=O)n(C(C(=O)N3CCN(c4ccncc4)CC3)c3ccccc3)c3cc(C#N)ccc32)cc1 (centres unmarked) [Example 51]"
experimental_readout = "Ki"
assay_value = "0.5 to 10 µM"

[[record]]
compound = "COc1ccc(S(=O)(=O)n2c(=O)n(C(C(=O)N3CC[C@H](NC4CCN(C(=O)OC(C)(C)C)CC4)C3)c3ccccc3)c3cc(C#N)ccc32)cc1 (some centres unmarked) [Example 243]"
experimental_readout = "Ki"
assay_value = "0.5 to 10 µM"

[[record]]
compound = "COc1ccc(S(=O)(=O)n2c(=O)n(C(C(=O)N3CC[C@H](CNC4CCN(C)CC4)C3)c3ccccc3)c3cc(C#N)ccc32)cc1 (some centres unmarked) [Example 255, trifluoroacetic acid]"
experimental_readout = "Ki"
assay_value = "< 0.1 µM"

[[record]]
compound = "CCCN1CCN([C@H]2CCN(C(=O)C(c3ccccc3)n3c(=O)n(S(=O)(=O)c4ccsc4)c4ccc(C#N)cc43)C2)CC1 (some centres unmarked) [Example 203]"
experimental_readout = "Ki"
assay_value = "< 0.1 µM"

[[record]]
compound = "CCCN1CCN(CCCNC(=O)C(c2ccccc2)n2c(=O)n(S(=O)(=O)c3ccc(OC)cc3)c3ccc(Cl)cc32)CC1 (centres unmarked) [Example 136]"
experimental_readout = "Ki"
assay_value = "0.1 to 0.5 µM"


Please look at the following compound next.
Q: Please indicate recorded Ki of CCCN1CCN(C2CCN(C(=O)C(c3ccccc3)n3c(=O)n(S(=O)(=O)c4ccc(OC)cc4)c4ccc(I)cc43)C2)CC1 (centres unmarked) [Example 80] measured with human vasopressin V1b receptor (Homo sapiens, UniProt P47901).
Result: < 0.1 µM

* * *

- EXPERIMENTAL_TARGET: human vasopressin V1b receptor (Homo sapiens)
- Construct: expressed in transfected cells; host or cells: CHO-K1 (cell line hV1b-3H2_CHO), membrane preparation
- ASSAY_EXPLANATION: Vasopressin V1b receptor binding assay
- CONDITIONS: membranes from CHO-K1 cells with stably expressed human V1b receptors; displacement of 1.5 nM 3H-AVP; read-out: V1b receptor affinity (affinity constant Ki)
pKi: −log10 of the molar value.
Each item that follows carries a reported pKi.

Before answering, review these 8 worked examples.
[[record]]
compound = "COc1ccc(S(=O)(=O)n2c(=O)n(C(C(=O)N3CC[C@H](N4CCN(C)CC4)C3)c3ccccc3)c3cc(Cl)ccc32)cc1 (stereo partly drawn)"
experimental_readout = "pKi"
assay_value = "> 7.00"

[[record]]
compound = "COc1ccc(S(=O)(=O)n2c(=O)n(CC(=O)N3CCCCC3)c3cc(Cl)ccc32)cc1"
experimental_readout = "pKi"
assay_value = "5.00 to 6.30"

[[record]]
compound = "COc1ccc(S(=O)(=O)n2c(=O)n(C(C(=O)NCCCN3CCNCC3)c3ccccc3)c3cc(Cl)ccc32)cc1 (stereo not drawn)"
experimental_readout = "pKi"
assay_value = "6.30 to 7.00"

[[record]]
compound = "CCCN1CCN([C@H]2CCN(C(=O)C(c3ccccc3)n3c(=O)n(S(=O)(=O)c4ccc(C)cn4)c4ccc(C#N)cc43)C2)CC1 (stereo partly drawn)"
experimental_readout = "pKi"
assay_value = "6.30 to 7.00"

[[record]]
compound = "COc1ccc(S(=O)(=O)n2c(=O)n(C(C(=O)N(C)C)c3ccccc3)c3cc(Cl)ccc32)cc1 (stereo not drawn)"
experimental_readout = "pKi"
assay_value = "5.00 to 6.30"

[[record]]
compound = "COc1ccc(S(=O)(=O)n2c(=O)n(C(C(=O)NCc3ccccc3)c3ccccc3)c3cc(Cl)ccc32)cc1 (stereo not drawn)"
experimental_readout = "pKi"
assay_value = "5.00 to 6.30"

[[record]]
compound = "COc1ccccc1C(C(=O)N1CCN(C2CCN(C)CC2)CC1)n1c(=O)n(S(=O)(=O)c2ccc(C#N)cc2)c2ccc(Cl)cc21 (stereo not drawn)"
experimental_readout = "pKi"
assay_value = "5.00 to 6.30"

[[record]]
compound = "COc1ccc(S(=O)(=O)n2c(=O)n(C(C(=O)N3CC[C@H](N4CCN(Cc5ccccc5)CC4)C3)c3ccccc3)c3cc(C#N)ccc32)cc1 (stereo partly drawn)"
experimental_readout = "pKi"
assay_value = "> 7.00"


Please look at the following compound next.
Q: Give the reported value of pKi for this record: CCCN1CCN(C2CCN(C(=O)C(c3ccccc3)n3c(=O)n(S(=O)(=O)c4ccc(OC)cc4)c4ccc(C#N)cc43)C2)CC1 (stereo not drawn)
Result: > 7.00

* * *

Each item that follows carries a reported Ki.
- EXPERIMENTAL_TARGET: human vasopressin V1b receptor (Homo sapiens)
- Sequence (P47901 1-424): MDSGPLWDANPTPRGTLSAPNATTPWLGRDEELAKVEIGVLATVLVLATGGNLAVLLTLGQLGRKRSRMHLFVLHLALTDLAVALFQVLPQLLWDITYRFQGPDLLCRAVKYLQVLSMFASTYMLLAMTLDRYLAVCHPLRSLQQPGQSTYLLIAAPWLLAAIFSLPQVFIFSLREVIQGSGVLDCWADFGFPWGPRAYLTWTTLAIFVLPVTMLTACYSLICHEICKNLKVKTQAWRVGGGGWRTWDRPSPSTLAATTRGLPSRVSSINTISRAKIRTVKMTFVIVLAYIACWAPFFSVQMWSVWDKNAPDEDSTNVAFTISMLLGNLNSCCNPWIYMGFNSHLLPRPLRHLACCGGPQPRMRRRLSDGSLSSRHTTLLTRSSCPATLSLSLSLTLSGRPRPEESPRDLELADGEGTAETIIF

Before answering, review these 2 worked examples.
[[record]]
compound = "COc1ccc(S(=O)(=O)n2c(=O)n(C(C(=O)N3CCCC(N4CCN(C)CC4)C3)c3ccccc3)c3cc(Cl)ccc32)cc1 (stereo not drawn)"
experimental_target = "human vasopressin V1b receptor (Homo sapiens)"
assay_value = "< 100 nM"

[[record]]
compound = "COc1ccc(S(=O)(=O)n2c(=O)n(C(C(=O)N3CCN(c4ccncc4)CC3)c3ccccc3)c3ccccc32)cc1 (stereo not drawn)"
experimental_target = "human vasopressin V1b receptor (Homo sapiens)"
assay_value = "500 to 10000 nM"


Please look at the following compound next.
Q: Give the reported value of Ki for this record: CCCN1CCN(C2CCN(C(=O)Cn3c(=O)n(S(=O)(=O)c4ccc(OC)cc4)c4ccc(Cl)cc43)C2)CC1 (stereo not drawn)
Result: 500 to 10000 nM

From: patent US8791148B2
